All figures here come from the supplement of paper PMC10567573.

B1: PRPH (parent)
chain: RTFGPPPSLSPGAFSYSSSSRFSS

- Variants of: B1
- assayRemarks: protein stability index of a GFP-peptide fusion (GPS, HEK-293T) (PSI 1-6); higher = more stable;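 further: lentivirally expressed fusions sorted by FACS into six bins by GFP to DsRed ratio, PSI derived from sequencing read proportions per bin multiplied by bin number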
- experimentalParameters: c terminus: a fixed tail appended
measuredAttribute: protein stability index
Numbers only.

Here is how some variants turned out for protein stability index.
- RTFGPPPSLSPGAFSYSSCSRFSS [S19C]: 2.66
- RTFGPPPSLSPSAFSYSSSSRFSS [G12S]: 3.42
- RVFGPPPSLSPGAFSYSSSSRFSS [T2V]: 2.23

For each listed entry, give its protein stability index.
1. RTFGIPPSLSPGAFSYSSSSRFSS [P5I]
2. RTFGNPPSLSPGAFSYSSSSRFSS [P5N]
3. RTFCPPPSLSPGAFSYSSSSRFSS [G4C]

Marked response:
[2.5, 3.55, 2.9]
